# assay.method.text: MRT (0 to infinity) in Sprague-Dawley rat at 10 mg/kg, po by LC-MS/MS analysis
# Assay type: ADME, organism-based
# cond: in vivo
measure.name: MRT inf

According to the records, this molecule COc1ccn2nc(C)c(C(=O)NCc3ccc(-c4ccc(OC(F)(F)F)cc4)cn3)c2c1 displays MRT inf of 8.21 h

---

# assay.method.text: AUC (0 to infinity) in Sprague-Dawley rat at 10 mg/kg, po by LC-MS/MS analysis
# Format: ADME, organism-based
# Set-up: dose 10 mg/kg, route oral, time infinity
# cond: in vivo
measure.name: AUC(0-inf) (ng·h/mL)
Could you give me the number in ng·h/mL? Just the number is fine.

According to the records, this compound COc1ccn2nc(C)c(C(=O)NCc3ccc(-c4ccc(OC(F)(F)F)cc4)cn3)c2c1 displays AUC(0-inf) of 15600
